biological target: Serine/threonine-protein kinase haspin (Homo sapiens)
Sequence (Q8TF76 whole entry): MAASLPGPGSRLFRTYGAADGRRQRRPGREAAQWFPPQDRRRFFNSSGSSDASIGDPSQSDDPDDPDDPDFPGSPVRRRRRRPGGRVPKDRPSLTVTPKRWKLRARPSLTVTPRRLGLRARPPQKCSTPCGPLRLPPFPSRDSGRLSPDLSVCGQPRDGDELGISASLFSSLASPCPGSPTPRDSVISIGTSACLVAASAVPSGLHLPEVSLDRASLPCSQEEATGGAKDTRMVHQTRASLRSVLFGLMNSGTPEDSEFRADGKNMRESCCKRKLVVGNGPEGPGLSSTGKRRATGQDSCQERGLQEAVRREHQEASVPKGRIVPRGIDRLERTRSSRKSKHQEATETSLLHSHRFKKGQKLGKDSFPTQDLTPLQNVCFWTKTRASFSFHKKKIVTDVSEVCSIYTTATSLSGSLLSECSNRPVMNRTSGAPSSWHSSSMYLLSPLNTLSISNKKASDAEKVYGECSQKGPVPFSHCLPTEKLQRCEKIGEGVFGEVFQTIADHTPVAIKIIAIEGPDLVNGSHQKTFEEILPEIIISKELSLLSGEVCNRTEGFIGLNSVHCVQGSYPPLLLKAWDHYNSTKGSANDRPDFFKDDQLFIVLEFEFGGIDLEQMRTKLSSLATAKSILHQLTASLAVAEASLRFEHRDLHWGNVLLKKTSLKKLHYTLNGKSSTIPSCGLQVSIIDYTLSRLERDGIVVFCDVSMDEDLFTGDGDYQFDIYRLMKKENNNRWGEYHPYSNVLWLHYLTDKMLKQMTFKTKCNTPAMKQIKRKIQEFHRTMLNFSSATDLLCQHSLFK
OBSERVATION TYPE: IC50 (nM)

> print(dat)
                                   compound                         system.under.test  value.observed
1  Cc1c(Br)c(Br)c2c3c1nc(N1CCNCC1)n3CCC2 [SEL-120 FREE BASE]  Serine/threonine-protein kinase haspin (Homo sapiens)              46

* * *

system: MV4-11; experiment: Antiproliferative activity against human MV4-11 cells incubated for 5 days by CellTiter-Glo luminescent cell viability assay; format: functional, cell-based; settings: MV4-11, 120 h
pIC50: −log10 of the molar value.
Lab note: anything with pIC50 at or over 7 counts as condition met; the rest go in condition not met.

> print(dat)
                                    molecule     classification
 1   Cc1c(Br)c(Br)cc2c1nc(N1CCNCC1)n2C1CCCC1  condition not met
 2  Cc1c(Br)c(Br)c(C)c2c1nc(N1CCNCC1)n2C1CCCC1  condition not met
 3  FC(F)c1c(Br)c(Br)cc2c1nc(N1CCNCC1)n2C1CCOCC1      condition met
 4  Cc1c(Br)c(Br)cc2c1nc(N1CCNCC1)n2C1CC2(COC2)C1  condition not met
 5  Clc1c(Br)c(Br)cc2c1nc(N1CCNCC1)n2C1CCOCC1  condition not met
 6  NC1CCN(c2nc3c(C(F)F)c(Br)c(Br)cc3n2C2CCOCC2)CC1  condition not met
 7  Cc1c(Br)c(Br)cc2c1nc(N1CCNCC1)n2C1CCCOC1 (configuration not stated)  condition not met
 8  OCCN1CCN(c2nc3c(C(F)F)c(Br)c(Br)cc3n2C2CCOCC2)CC1      condition met
 9  Cc1c(Br)c(Br)c2c3c1nc(N1CCNCC1)n3CCC2 [SEL-120 FREE BASE]      condition met
10  C=Cc1c(Br)c(Br)cc2c1nc(N1CCNCC1)n2C1CCOCC1  condition not met
11  Brc1cc2c(nc(N3CCNCC3)n2C2CCOCC2)c(C2CC2)c1Br  condition not met
12     Brc1cc2nc(N3CCNCC3)n(C3CCOCC3)c2cc1Br  condition not met
13  N[C@@H]1CCN(c2nc3c(C(F)F)c(Br)c(Br)cc3n2C2CCOCC2)C1      condition met
14  Cc1c(Br)c(Br)cc2c1nc(N1CCNCC1)n2C1CCOCC1      condition met

* * *

experiment: Cmax in mouse at 5 mg/kg, po measured upto 24 hrs by LC-MS/MS analysis; type: ADME, organism-based; conditions: in vivo
OBSERVATION TYPE: Cmax (ng/mL)

> print(dat)
                                   molecule  value.observed
1  Cc1c(Br)c(Br)c2c3c1nc(N1CCNCC1)n3CCC2 [SEL-120 FREE BASE]             143

* * *

experiment: AUC(0 to 24 hrs) in mouse at 5 mg/kg, po measured upto 24 hrs by LC-MS/MS analysis; type: ADME, organism-based; conditions: in vivo
OBSERVATION TYPE: AUC(0-t) at 24 h

> print(dat)
                                   compound  observation.type  value.observed
1  Cc1c(Br)c(Br)c2c3c1nc(N1CCNCC1)n3CCC2 [SEL-120 FREE BASE]  AUC(0-t) at 24 h    1.35 µg·h/mL

The reported measurements were obtained from ChEMBL document CHEMBL5506027.
